# Target Or Test System: T1, human tissue factor (TF) on cells (human, UniProt P13726 33-295)
# T1 construct: also called human TF; the antigen
# Protocol Summary: cell ELISA on fixed J82 cells expressing TF
Recorded Metric: binding result

-- ask Query (binder): H chain humanized version i / L chain humanized version b antibody (antibody, V domains shown, also called humanized antibody version i-b) VH: QVQLLESGAVLARPGTSVKISCKASGFNIKDYYMHWVKQRPGQGLEWIGGNDPANGHSMYDPKFQGRVTITADTSTSTVFMELSSLRSEDTAVYYCARDSGYAMDYWGQGTLVTVSS VL: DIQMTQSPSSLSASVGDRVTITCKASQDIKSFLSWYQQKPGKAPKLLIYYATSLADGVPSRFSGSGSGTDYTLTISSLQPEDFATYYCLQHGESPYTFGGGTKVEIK ; field requested: binding result
-- reply binds

-- ask What value of binding result has been recorded for this entry: chimeric H chain / humanized L chain version c antibody (antibody, V domains shown, Expressed from N5KG4P (human IgG4-type)) VH: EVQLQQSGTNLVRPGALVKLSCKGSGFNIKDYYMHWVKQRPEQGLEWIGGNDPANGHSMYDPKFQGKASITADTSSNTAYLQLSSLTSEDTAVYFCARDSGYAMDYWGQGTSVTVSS VL: DIQMTQSPSSLSASVGDRVTITCKASQDIKSFLSWYQQKPGKAPKLLIYYATSLADGVPSRFSGSGSGTDYTLTISSLQPEDIATYYCLQHGESPYTFGGGTKVEIK
-- reply binds
